Study System: T1, APC4264-AA
T1 chain: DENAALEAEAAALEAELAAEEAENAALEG
Protocol Notes: two-hybrid library CCmax;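 further: natural log of median RNA to DNA barcode read ratio; higher means stronger binding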
Condition Context: mean of both orientations
Recorded interaction score, one value per entry.
The reply should be a number, written without any unit.

These solved cases illustrate the format of a correct answer.
[
  {
    "Binder": "DENAALKAKIAALEAKNAALEAKIAALEG [4H1845-AA]",
    "interaction score": -1.79
  },
  {
    "Binder": "DKAAALKAELAAEEAENAALEAKNAALKG [APC3645-AA]",
    "interaction score": -1.56
  },
  {
    "Binder": "DKNAALEAKIAALEAEIAALEAEIAALKG [4H3330-AA]",
    "interaction score": -1.37
  },
  {
    "Binder": "DKIAALEAEIAALKAKIAALEAENAALKG [4H2148-AA]",
    "interaction score": -1.81
  },
  {
    "Binder": "DKLAAIKAELAAIEAKLAAIKAKNAALKG [APC1015-AA]",
    "interaction score": -1.82
  },
  {
    "Binder": "DEIAALKAENAALKAENAALKAKIAALEG [4H733-AA]",
    "interaction score": -1.83
  }
]

Quick one: interaction score for DENAALEAELAAIEAKLAAIKAKLAAIKG [APC4011-AA] ?
-1.72
